The following compounds are listed with their measured IC50 values.
# Target of assay: hERG channel (Homo sapiens)
# Sequence (Q12809 whole entry): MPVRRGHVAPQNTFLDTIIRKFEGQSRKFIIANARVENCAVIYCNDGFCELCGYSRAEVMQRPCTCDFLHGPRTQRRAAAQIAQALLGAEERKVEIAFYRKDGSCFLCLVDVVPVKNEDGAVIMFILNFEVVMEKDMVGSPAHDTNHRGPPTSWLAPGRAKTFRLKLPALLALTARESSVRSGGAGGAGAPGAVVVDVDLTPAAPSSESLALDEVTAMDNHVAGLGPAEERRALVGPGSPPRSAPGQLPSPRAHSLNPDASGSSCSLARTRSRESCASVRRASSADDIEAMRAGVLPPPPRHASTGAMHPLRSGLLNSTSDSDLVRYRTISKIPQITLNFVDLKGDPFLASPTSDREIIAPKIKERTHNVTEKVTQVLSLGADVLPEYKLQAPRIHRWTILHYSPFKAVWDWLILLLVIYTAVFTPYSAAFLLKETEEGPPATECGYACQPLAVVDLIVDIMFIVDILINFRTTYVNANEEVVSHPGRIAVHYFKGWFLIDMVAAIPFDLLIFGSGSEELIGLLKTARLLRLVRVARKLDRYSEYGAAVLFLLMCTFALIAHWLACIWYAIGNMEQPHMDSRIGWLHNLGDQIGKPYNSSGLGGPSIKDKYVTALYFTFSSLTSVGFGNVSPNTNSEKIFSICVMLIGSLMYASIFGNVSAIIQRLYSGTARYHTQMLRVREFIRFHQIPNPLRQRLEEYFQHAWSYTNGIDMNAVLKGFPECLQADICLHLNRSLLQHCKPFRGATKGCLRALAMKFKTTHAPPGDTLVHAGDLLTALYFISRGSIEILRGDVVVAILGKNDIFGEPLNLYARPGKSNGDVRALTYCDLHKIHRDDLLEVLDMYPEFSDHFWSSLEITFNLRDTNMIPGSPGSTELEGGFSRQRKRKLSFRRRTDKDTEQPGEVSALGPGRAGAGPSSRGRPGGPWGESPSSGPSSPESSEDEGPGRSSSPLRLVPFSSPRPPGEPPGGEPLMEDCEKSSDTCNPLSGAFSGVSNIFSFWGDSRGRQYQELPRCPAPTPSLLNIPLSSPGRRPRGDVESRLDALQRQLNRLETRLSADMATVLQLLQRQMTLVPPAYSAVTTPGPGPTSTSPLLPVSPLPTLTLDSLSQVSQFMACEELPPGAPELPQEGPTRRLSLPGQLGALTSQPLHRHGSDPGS
# Test description: hERG electrophysiology, automated whole-cell patch clamp (Patchliner)
Observed property: IC50

[
  {
    "Compound": "NC(c1cc(Cl)c(Cl)cc1O)C1CCN(c2ccccn2)CC1 (stereo not shown)",
    "Recorded result": "< 30 µM"
  },
  {
    "Compound": "N[C@@H](c1cc(Cl)c(Cl)cc1O)C1CCN(C(=O)C2CNC(=O)C2)CC1 (stereo partly shown)",
    "Recorded result": "> 30 µM"
  },
  {
    "Compound": "N[C@@H](c1cc(Cl)c(Cl)cc1O)[C@H]1CCNC1 (single isomer, unassigned; diastereoisomer 1)",
    "Recorded result": "> 30 µM"
  },
  {
    "Compound": "N[C@@H](c1cc(Cl)c(Cl)cc1O)C1CCN(C(=O)c2ccn[nH]2)CC1",
    "Recorded result": "> 30 µM"
  }
]

* * *

# Target of assay: hERG channel (Homo sapiens)
# Test description: hERG electrophysiology, automated whole-cell patch clamp (Patchliner)
pIC50: −log10 of the molar value.
Observed property: pIC50

[
  {
    "Compound": "N[C@@H](c1cc(Cl)c(Cl)cc1O)C1CCN(C(=O)C2CNC2)CC1",
    "Recorded result": "< 4.52"
  },
  {
    "Compound": "N[C@@H](CO)C(=O)N1CCC([C@@H](N)c2cc(Cl)c(Cl)cc2O)CC1",
    "Recorded result": "< 4.52"
  },
  {
    "Compound": "CO[C@@H](CO)C(=O)N1CCC([C@@H](N)c2cc(Cl)c(Cl)cc2O)CC1",
    "Recorded result": "< 4.52"
  },
  {
    "Compound": "Cc1cc(O)c([C@H](N)C2CCN(C(=O)c3ccc(=O)n(C)c3)CC2)cc1Cl",
    "Recorded result": "< 4.52"
  },
  {
    "Compound": "Cc1cc(O)c([C@H](N)C2CCN(C(=O)c3ccc(=O)[nH]c3)CC2)c(F)c1Cl",
    "Recorded result": "< 4.52"
  },
  {
    "Compound": "N[C@@H](c1cc(Cl)c(Cl)cc1O)C1CCN(C(=O)[C@H]2C[C@@H](O)C2)CC1",
    "Recorded result": "< 4.52"
  },
  {
    "Compound": "N[C@@H](c1cc(Cl)c(Cl)cc1O)C1CCN(c2cn[nH]c2)CC1",
    "Recorded result": "> 4.52"
  },
  {
    "Compound": "Cn1cc(C(=O)N2CCC([C@@H](N)c3cc(Cl)c(Cl)cc3O)CC2)cn1",
    "Recorded result": "> 4.52"
  },
  {
    "Compound": "Cc1cc(O)c([C@H](N)C2CCN(C(=O)c3c[nH]c(=O)cc3Cl)CC2)cc1Cl",
    "Recorded result": "< 4.52"
  },
  {
    "Compound": "N[C@@H](c1cc(Cl)c(Cl)cc1O)C1CCN(C(=O)[C@H]2CCNC2)CC1 (single isomer, unassigned)",
    "Recorded result": "< 4.52"
  },
  {
    "Compound": "N[C@@H](c1cc(Cl)c(Cl)cc1O)C1CCN(C(=O)[C@H]2CCN2)CC1",
    "Recorded result": "< 4.52"
  },
  {
    "Compound": "N[C@@H](c1cc(Cl)c(Cl)cc1O)C1CCN(C(=O)c2c[nH]c(=O)cn2)CC1",
    "Recorded result": "< 4.52"
  },
  {
    "Compound": "Cc1cc(O)c([C@H](N)C2CCN(C(=O)C3CNC3)CC2)cc1Cl",
    "Recorded result": "< 4.52"
  },
  {
    "Compound": "Oc1cc(Cl)c(Cl)cc1[C@@H](O)C1CCNCC1 (single isomer, unassigned)",
    "Recorded result": "< 4.52"
  },
  {
    "Compound": "N[C@@H](c1cc(Cl)c(Cl)cc1O)C1CCN(S(=O)(=O)c2cn[nH]c2)CC1",
    "Recorded result": "> 4.52"
  }
]
